# method_notes: Metabolic stability in rat plasma assessed as unmetabolized fraction after 60 mins
# Type: ADME, cell-free
# run_conditions: read-out: Stability
measurement_kind: remaining at 1 h (%)
Provide only the numeric value, understood in %.

Reported remaining at 1 h for COc1c(OCC[18F])cccc1C(O)C1CCN(CCc2ccc(F)cc2)CC1 (stereo unspecified) : what is it? 7

====

# test_system: 5-hydroxytryptamine receptor 2A (Rattus norvegicus, UniProt P14842)
# Sequence (P14842 whole entry): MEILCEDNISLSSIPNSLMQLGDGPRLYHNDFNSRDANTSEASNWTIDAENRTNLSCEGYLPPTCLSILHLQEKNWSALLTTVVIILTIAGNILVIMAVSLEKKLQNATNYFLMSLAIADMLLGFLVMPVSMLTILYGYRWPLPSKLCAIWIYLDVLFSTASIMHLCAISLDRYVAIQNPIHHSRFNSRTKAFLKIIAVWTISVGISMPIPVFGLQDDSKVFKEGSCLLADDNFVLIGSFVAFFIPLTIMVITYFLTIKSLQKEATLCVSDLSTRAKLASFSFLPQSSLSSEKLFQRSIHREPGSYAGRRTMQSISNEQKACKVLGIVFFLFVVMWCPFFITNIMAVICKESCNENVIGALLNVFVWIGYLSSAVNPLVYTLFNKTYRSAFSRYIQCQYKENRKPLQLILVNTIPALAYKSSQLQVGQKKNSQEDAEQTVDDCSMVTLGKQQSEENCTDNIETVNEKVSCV
# method_notes: Displacement of [3H]MDL from rat 5HT2A receptor expressed in GF62 cells
# Format: cell-based
measurement_kind: Ki (nM)
Provide only the numeric value, understood in nM.

Reported Ki for 5-hydroxytryptamine receptor 2A (Rattus norvegicus, UniProt P14842), given O=C(c1ccc(F)cc1)C1CCN(CCn2c(=S)[nH]c3ccccc3c2=O)CC1 [ALTANSERIN] ? 0.74
